# target desc: T1, human Trop-2 expressed on cell surface (human, UniProt P09758 27-323)
# T1 sequence (looked up): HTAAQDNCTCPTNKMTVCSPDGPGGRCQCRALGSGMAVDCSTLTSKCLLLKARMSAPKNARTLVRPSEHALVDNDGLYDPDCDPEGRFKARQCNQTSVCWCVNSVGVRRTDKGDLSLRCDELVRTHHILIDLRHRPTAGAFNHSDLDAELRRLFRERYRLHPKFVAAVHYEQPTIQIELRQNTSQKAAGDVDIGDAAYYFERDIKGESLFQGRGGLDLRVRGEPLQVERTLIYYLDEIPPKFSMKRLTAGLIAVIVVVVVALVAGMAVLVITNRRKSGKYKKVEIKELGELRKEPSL
# method description: cell-based or functional assay
Internalization %, MDA-MB-231, 1 µg/ml, 4 h: recorded values
Give the value, in units of %, as a plain number.

{"binder": "9D7-2 (antibody, V domains shown) VH: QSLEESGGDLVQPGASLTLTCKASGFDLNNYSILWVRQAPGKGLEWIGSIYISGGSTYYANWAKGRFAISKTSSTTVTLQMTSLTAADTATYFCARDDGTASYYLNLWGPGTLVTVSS VL: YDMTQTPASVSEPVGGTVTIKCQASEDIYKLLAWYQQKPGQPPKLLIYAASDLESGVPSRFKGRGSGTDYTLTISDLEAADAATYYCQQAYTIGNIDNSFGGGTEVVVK", "observed value": 62}

Then there is this binder:
Query: Requested field: Internalization %, MDA-MB-231, 1 µg/ml, 4 h. Item: 72F12 (antibody, V domains shown, Rabbit-derived clone; LEM construct: VH + rabbit IgG CH1 + human IgG1 CH2-CH3) VH: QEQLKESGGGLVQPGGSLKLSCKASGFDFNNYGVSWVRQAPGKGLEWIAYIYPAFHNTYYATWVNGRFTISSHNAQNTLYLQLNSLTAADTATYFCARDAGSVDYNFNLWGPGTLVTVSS VL: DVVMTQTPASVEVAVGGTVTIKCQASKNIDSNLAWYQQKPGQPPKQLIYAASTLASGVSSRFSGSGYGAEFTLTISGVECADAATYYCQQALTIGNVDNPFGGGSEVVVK
Reply: 45
